Attribution: ChEMBL document CHEMBL5104178

assay: Plasma protein binding in human; assay type: ADME, cell-free; details: read-out: PPB (converted)
List of fraction unbound values.

Example cases with answers are listed next.
- Entry smiles: "O=c1c2nc([N+](=O)[O-])cn2ccn1Cc1cccc(OC(F)(F)F)c1"
  Measurement label: "fraction unbound"
  Observed value: "< 0.01"
- Entry smiles: "O=c1c2nc([N+](=O)[O-])cn2ccn1Cc1cccc(C(F)(F)F)c1"
  Measurement label: "fraction unbound"
  Observed value: 0.04

q: Using the record for `O=c1c2nc([N+](=O)[O-])cn2ccn1Cc1ccc(OC(F)(F)F)cc1` , state its measured fraction unbound.
a: < 0.01

====

tested on: Mycobacterium tuberculosis; test: Substrate activity at Mycobacterium tuberculosis Ddn expressed in Escherichia coli BL21 (DE3) assessed as oxidation of F420H2 by measuring Kcat/Km by spectrophotometric analysis
Measurement label: log10 kcat/Km (log10 of the value in M⁻¹ s⁻¹)
Annotation: log10 of kcat/Km, M⁻¹ s⁻¹ basis.

Example cases with answers are listed next.
- Entry smiles: "O=c1c2nc([N+](=O)[O-])cn2ccn1Cc1ccc(-c2cccc(OC(F)(F)F)c2)cc1"
  log10 kcat/Km: 2.57
- Entry smiles: "O=c1c2nc([N+](=O)[O-])cn2ccn1Cc1ccc(-c2cccc(OC(F)(F)F)c2)nc1"
  log10 kcat/Km: 2.42
- Entry smiles: "O=c1c2nc([N+](=O)[O-])cn2ccn1Cc1cncc(-c2ccc(OC(F)(F)F)cc2)c1"
  log10 kcat/Km: 3.65
- Entry smiles: "O=c1c2nc([N+](=O)[O-])cn2ccn1Cc1cccc(C(F)(F)F)c1"
  log10 kcat/Km: 3.22
- Entry smiles: "O=c1c2nc([N+](=O)[O-])cn2ccn1Cc1cccc(OC(F)(F)F)c1"
  log10 kcat/Km: 1.85

Now turn to the next compound.
q: Give the reported value of log10 kcat/Km for this record: `Cc1nc(OCc2ccc(OC(F)(F)F)cc2)c2nc([N+](=O)[O-])cn2c1C`
a: 1.38

====

assay: Tmax in CD-1 mouse at 25 mg/kg, po measured upto 48 hrs by LC/MS/MS analysis; assay type: ADME, organism-based; conditions: in vivo
Measurement label: Tmax (h)
Give just the number in h; leave the unit off.

q: Check the records and state Tmax for O=[N+]([O-])c1cn2c(n1)OC[C@@H](OCc1ccc(OC(F)(F)F)cc1)C2 [PRETOMANID]
a: 2

====

test: AUC(0 to 24 hrs) in CD-1 mouse at 20 mg/kg, po administered as DMSO/PEG400 formulation measured upto 24 hrs by LC-MS/MS analysis; type: ADME, organism-based; design: dose 20 mg/kg, time < 24 hrs, route po; settings: in vivo
Listing of recorded AUC(0-t) at 24 h by entry.
Report the value in ng·h/mL with no unit label.

// known answers, use as guide
- Entry smiles: "O=c1c2nc([N+](=O)[O-])cn2ccn1Cc1ccc(-c2cccnc2)cc1"
  Measurement label: "AUC(0-t) at 24 h"
  Unit tag: "ng·h/mL"
  Observed value: 9260
- Entry smiles: "O=c1c2nc([N+](=O)[O-])cn2ccn1Cc1ccc(OC(F)(F)F)cc1"
  Measurement label: "AUC(0-t) at 24 h"
  Unit tag: "ng·h/mL"
  Observed value: 38900

q: Determine from records and report AUC(0-t) at 24 h for `O=c1c2nc([N+](=O)[O-])cn2ccn1Cc1ccc(-c2ccc(OC(F)(F)F)cc2)cn1`
a: 45900
